Listing: growth of selected compounds
- System: CAKI-1 renal
- assay-overview: NCI-60 one-dose screen, 48 h (100 = growth as untreated, 0 = no growth, -100 = all killed)
- recorded-conditions: 10 µM unless noted
About 83,000 compounds went through this panel and 20% of them were active in at least one assay; those are over-represented in the sample as a whole. Calls of active or inactive are those of the source. How the source made its calls: active means growth percent below 10; inactive means the rest.
experimental-readout: growth

[[record]]
compound = "COC12C=C/C(=C(/C(=O)OCc3ccccn3)C(=O)CCCCCCCCC3(OC)C=C/C(=C(/C(=O)OCc4ccccn4)C(=O)CCCCCCCC1)O3)O2"
experimental_readout = "growth"
assay_value = "-4.53% (active)"

[[record]]
compound = "Cc1ccc(C(=O)Nc2ccc(CN3CCN(C)CC3)c(C(F)(F)F)c2)cc1C#Cc1cnc(N)c2ccccc12"
experimental_readout = "growth"
assay_value = "-81.6% (active)"

[[record]]
compound = "O=C(Nc1cccc(Cl)c1)Oc1c(Cl)c(Cl)c(Cl)c(Cl)c1Cl"
experimental_readout = "growth"
assay_value = "88.2% (inactive)"

[[record]]
compound = "O=C1N/C(=N/N=C(c2ccccc2)c2ccccc2)S/C1=C\\c1ccc(Br)cc1"
experimental_readout = "growth"
assay_value = "77.2% (inactive)"

[[record]]
compound = "COc1ccc(N2C(=O)/C(=C/C(Cl)=C/c3ccc([N+](=O)[O-])cc3)SC2=S)cc1"
experimental_readout = "growth"
assay_value = "0.845% (active)"

[[record]]
compound = "O=C(Cn1cc(CSc2nc3ccccc3o2)nn1)Nc1ccc([N+](=O)[O-])cc1"
experimental_readout = "growth"
assay_value = "82% (inactive)"

[[record]]
compound = "CN(C)C(=S)NN=C(c1ccccn1)c1ccccn1"
experimental_readout = "growth"
assay_value = "30% (inactive)"

[[record]]
compound = "[2H]C([2H])([2H])Oc1ccc(/C=C/C(=O)/C=C(O)/C=C/c2ccc(OC([2H])([2H])[2H])c(OC([2H])([2H])[2H])c2)cc1OC([2H])([2H])[2H]"
experimental_readout = "growth"
assay_value = "41.3% (inactive)"

[[record]]
compound = "CCOC(=O)c1c(N)sc2cc(O)ccc12"
experimental_readout = "growth"
assay_value = "97.7% (inactive)"

[[record]]
compound = "CCN(CC)CCCNC(=O)c1c2c(n3ccccc13)C(=O)c1ncccc1C2=O"
experimental_readout = "growth"
assay_value = "11.8% (inactive)"

[[record]]
compound = "COc1cc(C(=O)c2c(-c3ccccc3)oc3ccccc23)cc(OC)c1O"
experimental_readout = "growth"
assay_value = "32.7% (inactive)"

[[record]]
compound = "O=C1/C(=C/c2cccc(Br)c2)COc2ccc(O)c(O)c21"
experimental_readout = "growth"
assay_value = "-54.4% (active)"

[[record]]
compound = "Nc1cc(-c2ccc(Cl)cc2)nn1-c1nc(-c2ccc(Br)cc2)cs1"
experimental_readout = "growth"
assay_value = "97.8% (inactive)"

[[record]]
compound = "O=C1NCCS(=O)(=O)/C1=C\\C=C\\c1cccc(C(F)(F)F)c1"
experimental_readout = "growth"
assay_value = "55.4% (inactive)"

[[record]]
compound = "Cc1nc2sc(C(=O)Nc3ccccc3)c(N)c2cc1C(O)c1ccccc1 (centres undefined)"
experimental_readout = "growth"
assay_value = "24.8% (inactive)"

[[record]]
compound = "CCc1ccc(Cc2cnc(NC(=O)c3cc(C)oc3C)s2)cc1"
experimental_readout = "growth"
assay_value = "22.2% (inactive)"

[[record]]
compound = "COC(=O)[C@H](C)NC(=O)[C@@H]1CCCN1C(=O)CNC(=O)[C@H](C)N"
experimental_readout = "growth"
assay_value = "88.4% (inactive)"

[[record]]
compound = "CC/C(=C(/c1ccc(Cl)cc1)c1ccc(OCCN2CCCCCC2)cc1)c1ccccc1"
experimental_readout = "growth"
assay_value = "85.1% (inactive)"

[[record]]
compound = "C=C1C(=O)O[C@H]2[C@H]1CC/C(CNC(=O)/C=C/c1cc(OC)c(OC)c(OC)c1)=C\\CC[C@@]1(C)O[C@@H]21"
experimental_readout = "growth"
assay_value = "33.9% (inactive)"

[[record]]
compound = "COc1cc2c(c(OC)c1OC)CCC(c1cccc(C(=O)Nc3ccccc3Br)c1)O2 (centres undefined)"
experimental_readout = "growth"
assay_value = "95.4% (inactive)"

[[record]]
compound = "CCCCCN(CCCCC)CC(O)c1c(Cl)ccc2ccccc12 (centres undefined)"
experimental_readout = "growth"
assay_value = "60% (inactive)"

[[record]]
compound = "COc1cc(/C=N/NC(=O)c2ccc3nc(-c4ccc(Cl)cc4)[nH]c3c2)cc(OC)c1OC"
experimental_readout = "growth"
assay_value = "76% (inactive)"

[[record]]
compound = "O=C(Oc1ccccc1)c1cc(O)c(O)c(O)c1"
experimental_readout = "growth"
assay_value = "33.6% (inactive)"

[[record]]
compound = "O=C(NS(=O)(=O)c1ccccc1)n1cc(-c2ccncc2)c(-c2cc(O)cc(Cl)c2)n1"
experimental_readout = "growth"
assay_value = "94.2% (inactive)"

[[record]]
compound = "CCCN1C(=O)N(CCC)C2C1NC(=S)N2/N=C/C=C/c1ccccc1OC (centres undefined)"
experimental_readout = "growth"
assay_value = "26.6% (inactive)"

[[record]]
compound = "Cn1cc(-c2csc(-c3cn(CCO)c4ccc(F)cc34)n2)c2cccnc21"
experimental_readout = "growth"
assay_value = "78.4% (inactive)"

[[record]]
compound = "O=S(=O)(c1ccc(NCSc2nc3ccccc3s2)cc1)c1ccc(NCSc2nc3ccccc3s2)cc1"
experimental_readout = "growth"
assay_value = "95.4% (inactive)"

[[record]]
compound = "COc1cc(C2=Nc3c(N)nc(N)nc3NC(c3cccc(Nc4ccnc5cc(C(F)(F)F)ccc45)c3)C2)cc(OC)c1OC (centres undefined)"
experimental_readout = "growth"
assay_value = "58.6% (inactive)"

[[record]]
compound = "COc1ccc(/C=C2/CCc3cc4ccc(OC)cc4[o+]c32)c(O)c1"
experimental_readout = "growth"
assay_value = "81% (inactive)"

[[record]]
compound = "COc1ccc(/C(C)=C(\\c2ccc(Cl)cc2)c2ccc(OCCCN(C)C)cc2)cc1"
experimental_readout = "growth"
assay_value = "67.1% (inactive)"

[[record]]
compound = "CCOc1ccc(-c2cc(C3(S(=O)(=O)c4ccc(C)cc4)CC=CC3)on2)cc1"
experimental_readout = "growth"
assay_value = "83.2% (inactive)"

[[record]]
compound = "CC(C)(C)c1ccc(C(=O)Nc2sc3c(c2C#N)CCC(=O)C3)cc1"
experimental_readout = "growth"
assay_value = "-74.4% (active)"

[[record]]
compound = "Cc1ccc(C(F)(F)F)cc1N1CCN(C(=O)[C@H]2C[C@H]2c2ccc(C(F)(F)F)nc2)CC1"
experimental_readout = "growth"
assay_value = "69.3% (inactive)"

[[record]]
compound = "COc1ccc(Cn2cc(C(=O)N=Nc3c(O)[nH]c4ccc(Br)cc34)nn2)cc1"
experimental_readout = "growth"
assay_value = "97.7% (inactive)"

[[record]]
compound = "CC(C)=CCC[C@](C)(O)C1CC[C@]2(C)[C@@H]1CC[C@@H]1[C@@]3(C)CC/C(=N\\OCCC#N)C(C)(C)[C@@H]3CC[C@]12C (some centres undefined)"
experimental_readout = "growth"
assay_value = "77.5% (inactive)"

[[record]]
compound = "Cn1ccnc1C(=O)/C=C/c1ccc(C(=O)Nc2ccccc2F)cc1"
experimental_readout = "growth"
assay_value = "25.8% (inactive)"

[[record]]
compound = "O=C(O)COc1ccc(F)cc1"
experimental_readout = "growth"
assay_value = "94.7% (inactive)"

[[record]]
compound = "Cc1ccc(OCCOCCOCCOCCOc2ccc(C)n(O)c2=S)c(=S)n1O"
experimental_readout = "growth"
assay_value = "8.11% (active)"

[[record]]
compound = "CN1CC(c2ccccc2)C(C(=O)c2ccc(Br)cc2)C12C(=O)Nc1ccccc12 (centres undefined)"
experimental_readout = "growth"
assay_value = "63.2% (inactive)"

